src = patent US6451814B1

Please go through the items and note down their melting point.
Where a name gives a salt, the structure may show the parent alone.

Please review the following examples before continuing.
COMPOUND	VAL
COc1ccc(C2CCN(C(=O)N3CCC(Nc4ccc(CCNC[C@H](O)COc5ccc(O)cc5)cc4)CC3)CC2)cc1OC1CCCC1	92 to 95 °C
O=C(NCCCC1CCCCC1)N1CCC(Nc2ccc(CCNC[C@H](O)COc3ccc(O)cc3)cc2)CC1	69 to 71 °C

Hi, could you look up melting point for each item in my list?
1. CCCCCCCCNC(=O)N1CCC(Nc2ccc(CCNC[C@H](O)COc3ccc(O)c(NS(C)(=O)=O)c3)cc2)CC1 (as salt: salt)
2. CS(=O)(=O)Nc1cc(OC[C@@H](O)CNCCc2ccc(NC3CCN(C(=O)NCc4cc(F)ccc4F)CC3)cc2)ccc1O
3. CCCCCCCCNC(=O)N1CCC(S(=O)(=O)c2ccc(CCNC[C@H](O)COc3ccc4c(c3)OCO4)cc2)CC1
4. CCCCCCCCNC(=O)N1CCC(Nc2ccc(CCNC[C@H](O)CON=C3CCCc4c(O)cccc43)cc2)CC1

Result block:
1: 115 to 117 °C; 2: 103 to 108 °C; 3: 84 to 86 °C; 4: 85 to 87 °C
